// data source = the Human Domainome abundance scans (Beltran et al. 2025)

B1: POU domain, class 3, transcription factor 1, residues 247 to 324; numbered along this chain, Q03052 (parent)
chain: EDAPSSDDLEQFAKQFKQRRIKLGFTQADVGLALGTLYGNVFSQTTICRFEALQLSFKNMCKLKPLLNKWLEETDSSS

- Variants of: B1
- measurementProtocol: abundance fitness (aPCA) (normalised: wild type 0, dead -1); higher = more abundant; growth selection in yeast, the domain comes from the species named
- recordedConditions: Homo sapiens
# binarize abundance fitness: threshold -0.3 inclusive, high side criterion met, low side criterion not met

INSERT INTO results (variantid, cat) VALUES
  ('G24L', 'criterion not met'),
  ('C61S', 'criterion met'),
  ('L37W', 'criterion met'),
  ('L66E', 'criterion not met'),
  ('T26V', 'criterion not met'),
  ('C48D', 'criterion met'),
  ('S56E', 'criterion not met'),
  ('V41E', 'criterion met'),
  ('T46P', 'criterion not met'),
  ('N59F', 'criterion not met'),
  ('T45F', 'criterion met'),
  ('L53E', 'criterion not met'),
  ('S76V', 'criterion met'),
  ('N40L', 'criterion met'),
  ('Q27V', 'criterion met'),
  ('D75Y', 'criterion met'),
  ('T26Q', 'criterion met'),
  ('E72P', 'criterion not met'),
  ('R20I', 'criterion not met'),
  ('N68Y', 'criterion met'),
  ('K22W', 'criterion not met'),
  ('I21F', 'criterion not met'),
  ('F57R', 'criterion met'),
  ('S76L', 'criterion met'),
  ('D75S', 'criterion met'),
  ('L53R', 'criterion met'),
  ('G24Q', 'criterion not met'),
  ('L66V', 'criterion met'),
  ('F25G', 'criterion not met'),
  ('F50C', 'criterion not met'),
  ('K22F', 'criterion not met'),
  ('F50V', 'criterion not met'),
  ('T46C', 'criterion not met'),
  ('F50D', 'criterion not met'),
  ('T26K', 'criterion not met'),
  ('R20K', 'criterion not met'),
  ('T46I', 'criterion met'),
  ('G24W', 'criterion not met'),
  ('K62T', 'criterion met'),
  ('A33D', 'criterion not met'),
  ('L55S', 'criterion not met'),
  ('T74G', 'criterion not met'),
  ('L34I', 'criterion not met'),
  ('C61N', 'criterion met'),
  ('N40Y', 'criterion met'),
  ('S56V', 'criterion not met'),
  ('S77R', 'criterion met'),
  ('W70A', 'criterion not met'),
  ('L32E', 'criterion met'),
  ('S56R', 'criterion not met'),
  ('A52W', 'criterion not met'),
  ('Q44H', 'criterion met'),
  ('K22T', 'criterion met'),
  ('A52P', 'criterion not met'),
  ('Q44N', 'criterion met'),
  ('Q27L', 'criterion not met'),
  ('T74Q', 'criterion met'),
  ('S78R', 'criterion met'),
  ('K64I', 'criterion not met'),
  ('R20D', 'criterion not met');
